Assayed target: various mutants of kinase EGFR (BaF3 cell lines stably transfected with kinase) (Homo sapiens, UniProt P00533, L858R)
Construct: expressed in transfected cells; host or cells: BaF3
Sequence (P00533 25-1210 L858R): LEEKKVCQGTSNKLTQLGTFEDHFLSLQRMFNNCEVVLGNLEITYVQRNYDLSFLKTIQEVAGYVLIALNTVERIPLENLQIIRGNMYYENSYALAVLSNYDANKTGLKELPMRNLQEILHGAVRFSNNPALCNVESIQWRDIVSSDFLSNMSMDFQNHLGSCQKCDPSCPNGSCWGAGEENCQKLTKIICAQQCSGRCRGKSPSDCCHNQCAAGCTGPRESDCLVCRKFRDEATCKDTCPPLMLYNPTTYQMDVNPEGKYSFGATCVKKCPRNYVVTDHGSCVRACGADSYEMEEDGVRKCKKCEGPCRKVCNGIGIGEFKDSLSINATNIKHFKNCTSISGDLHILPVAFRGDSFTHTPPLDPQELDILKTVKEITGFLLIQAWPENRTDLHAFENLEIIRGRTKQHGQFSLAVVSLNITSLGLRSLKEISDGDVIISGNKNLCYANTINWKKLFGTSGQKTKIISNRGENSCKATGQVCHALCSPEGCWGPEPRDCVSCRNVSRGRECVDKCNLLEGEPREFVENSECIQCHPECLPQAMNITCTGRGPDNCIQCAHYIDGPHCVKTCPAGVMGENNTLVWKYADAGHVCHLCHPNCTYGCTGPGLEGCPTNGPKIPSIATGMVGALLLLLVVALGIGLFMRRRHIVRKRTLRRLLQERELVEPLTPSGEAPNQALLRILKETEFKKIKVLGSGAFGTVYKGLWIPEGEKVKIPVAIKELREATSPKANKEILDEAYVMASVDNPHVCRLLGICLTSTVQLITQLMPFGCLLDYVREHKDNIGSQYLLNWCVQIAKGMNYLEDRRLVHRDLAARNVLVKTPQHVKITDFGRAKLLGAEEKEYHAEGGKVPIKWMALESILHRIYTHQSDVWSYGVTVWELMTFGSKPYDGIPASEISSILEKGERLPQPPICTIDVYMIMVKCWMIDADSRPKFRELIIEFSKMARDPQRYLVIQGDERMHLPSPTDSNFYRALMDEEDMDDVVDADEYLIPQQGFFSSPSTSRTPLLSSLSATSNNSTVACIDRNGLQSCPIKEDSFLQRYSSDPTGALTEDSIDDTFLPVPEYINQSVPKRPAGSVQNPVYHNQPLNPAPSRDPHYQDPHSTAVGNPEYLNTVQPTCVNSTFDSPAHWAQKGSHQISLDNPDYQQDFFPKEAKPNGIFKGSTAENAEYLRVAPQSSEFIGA
Assay notes: Growth inhibitory activity of compounds on BaF3 cell lines stably transfected with kinase (MTS, 48 h)
Assay type: cell-based
Measurement setup: BaF3 cells stably transfected with EGFR L858R, read-out: IC50, growth inhibition, L858R
pIC50: −log10 of the molar value.
Below, each of the compounds is paired with its reported pIC50 value.

Some compounds with recorded pIC50:
- Compound: "CCc1cc(Nc2ncc(Br)c(Nc3ccc4nccnc4c3N(C3CC3)S(C)(=O)=O)n2)c(OC)cc1N1CCC(N2CCN(C)CC2)CC1"
  pIC50: "≥ 7.30"
- Compound: "COc1cc(N2CCC(N3CCN(C)CC3)CC2)c(Cc2ccccc2)cc1Nc1ncc(F)c(Nc2ccc3nccnc3c2N(C)S(C)(=O)=O)n1"
  pIC50: "5.60 to 6.30"
- Compound: "CCOc1cc(N2CCN(C)CC2)ccc1Nc1ncc(Br)c(Nc2ccc3nccnc3c2N(C)S(C)(=O)=O)n1"
  pIC50: "5.60 to 6.30"
- Compound: "COc1nc(N2CCC(N3CCN(C)CC3)CC2)ccc1Nc1ncc(Cl)c(Nc2ccc3nccnc3c2N(C2CC2)S(C)(=O)=O)n1"
  pIC50: "6.30 to 7.30"
- Compound: "CCc1cc(Nc2ncc(Br)c(Nc3ccc4nccnc4c3N(C)S(=O)(=O)CC)n2)c(OC)cc1N1CCC(N2CCN(C)CC2)CC1"
  pIC50: "≥ 7.30"
- Compound: "COc1cc(N2CCC(N(C)C)C2)c(C)cc1Nc1ncc(Cl)c(Nc2ccc3nccnc3c2N(C2CC2)S(C)(=O)=O)n1 (centres unmarked)"
  pIC50: "≥ 7.30"
- Compound: "CCc1cc(Nc2ncc(Cl)c(Nc3ccc4nccnc4c3N(C3CC3)S(C)(=O)=O)n2)c(OC)cc1N1CCC(N(C)C)C1 (centres unmarked)"
  pIC50: "≥ 7.30"
- Compound: "CCc1cc(Nc2ncc(F)c(Nc3ccc4nccnc4c3N(C)S(=O)(=O)C3CC3)n2)c(OC)cc1N1CCC(N(C)C)CC1"
  pIC50: "≥ 7.30"

Alright, here's another compound for you.
# pIC50 lookup, item CCc1cc(Nc2ncc([N+](=O)[O-])c(Nc3ccc4nccnc4c3N(C)S(C)(=O)=O)n2)c(OC)cc1N1CCC(N(C)C)C1 (centres unmarked)
6.30 to 7.30

====

Assayed target: various mutants of kinase EGFR (BaF3 cell lines stably transfected with kinase) (Homo sapiens, UniProt P00533, T790M, form not given)
Construct: other: BaF3 cells stably transfected with EGFR Δ19Del/T790M; MTS, 48 h; other: BaF3 cell line stably transfected with EGFR Δ19Del/T790M; MTS, 48
Sequence (P00533 with tags, fused parts or gaps DEL746-750/T790M, form open): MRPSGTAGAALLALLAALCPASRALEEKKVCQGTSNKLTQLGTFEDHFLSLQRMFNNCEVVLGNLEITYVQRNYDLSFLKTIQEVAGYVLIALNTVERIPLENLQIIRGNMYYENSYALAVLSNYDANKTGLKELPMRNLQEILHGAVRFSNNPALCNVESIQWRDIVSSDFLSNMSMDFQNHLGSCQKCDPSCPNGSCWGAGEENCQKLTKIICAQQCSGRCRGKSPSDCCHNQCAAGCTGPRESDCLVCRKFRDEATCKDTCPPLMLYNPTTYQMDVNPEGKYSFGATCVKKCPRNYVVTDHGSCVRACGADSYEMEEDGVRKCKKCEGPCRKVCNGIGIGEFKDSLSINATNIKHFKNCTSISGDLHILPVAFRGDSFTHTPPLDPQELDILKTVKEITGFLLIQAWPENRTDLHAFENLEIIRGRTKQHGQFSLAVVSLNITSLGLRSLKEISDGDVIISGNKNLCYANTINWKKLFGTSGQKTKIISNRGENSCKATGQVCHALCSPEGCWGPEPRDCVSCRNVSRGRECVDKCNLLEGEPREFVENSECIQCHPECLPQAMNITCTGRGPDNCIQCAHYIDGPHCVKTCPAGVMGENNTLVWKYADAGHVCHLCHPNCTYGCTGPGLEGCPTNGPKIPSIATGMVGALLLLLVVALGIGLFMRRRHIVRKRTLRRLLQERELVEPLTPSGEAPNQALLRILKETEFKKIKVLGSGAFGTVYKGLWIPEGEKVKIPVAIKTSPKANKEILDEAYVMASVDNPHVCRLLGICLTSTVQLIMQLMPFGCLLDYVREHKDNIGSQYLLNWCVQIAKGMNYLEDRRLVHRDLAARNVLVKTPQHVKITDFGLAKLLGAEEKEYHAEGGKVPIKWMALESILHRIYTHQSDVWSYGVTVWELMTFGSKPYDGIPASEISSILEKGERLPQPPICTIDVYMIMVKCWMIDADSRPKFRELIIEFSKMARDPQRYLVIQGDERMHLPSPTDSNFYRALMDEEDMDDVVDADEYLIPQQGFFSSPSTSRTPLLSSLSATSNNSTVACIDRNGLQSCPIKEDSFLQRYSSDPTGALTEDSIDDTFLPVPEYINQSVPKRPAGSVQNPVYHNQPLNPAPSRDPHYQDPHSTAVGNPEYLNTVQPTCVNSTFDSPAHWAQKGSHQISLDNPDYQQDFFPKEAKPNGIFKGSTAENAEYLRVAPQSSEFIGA
Assay notes: Growth inhibitory activity of compounds on BaF3 cell lines stably transfected with kinase (MTS, 48 h)
Assay type: cell-based
Measurement setup: BaF3 cells stably transfected with EGFR Δ19Del/T790M, read-out: IC50, growth inhibition, Δ19Del/T790M
pIC50: −log10 of the molar value.
Measure name: pIC50

# pIC50 lookup, item COc1cc(N2CCC(N3CCN(C)CC3)CC2)c(C)cc1Nc1ncc(Br)c(Nc2ccc3nccnc3c2N(C)S(=O)(=O)C(C)C)n1
≥ 7.30

# pIC50 lookup, item CCS(=O)(=O)N(C)c1c(Nc2nc(Nc3cc(C)c(N4CCC(N5CCN(C)CC5)CC4)cc3OC)ncc2Br)ccc2nccnc12
≥ 7.30

# pIC50 lookup, item CCc1cc(Nc2ncc(C3CC3)c(Nc3ccc4nccnc4c3N(C)S(C)(=O)=O)n2)c(OC)cc1N1CCC(N(C)C)C1 (centres unmarked)
≥ 7.30

# pIC50 lookup, item CCc1cc(Nc2ncc(Br)c(Nc3ccc4nccnc4c3N(C)S(=O)(=O)C(F)(F)F)n2)c(OC(F)(F)F)cc1N1CCC(N2CCN(C)CC2)CC1
6.30 to 7.30

# pIC50 lookup, item CCc1cc(Nc2ncc(Cl)c(Nc3ccc4nccnc4c3N(C)S(C)(=O)=O)n2)c(OC(F)(F)F)cc1N1CCC(N2CCN(C)CC2)CC1
≥ 7.30
